Reference source: paper PMC10397247

Target desc: T1, 4H2726-AA
T1 chain: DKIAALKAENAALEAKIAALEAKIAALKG
Experiment: two-hybrid library CCmax;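 further: natural log of median RNA to DNA barcode read ratio; higher means stronger binding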
Setup conditions: mean of both orientations
Readout: interaction score

{"Binder": "DENAALEAEIAALKAEIAALKAKNAALEG [4H1103-AA]", "Value measured": -1.04}

A = DKIAALEAENAALEAKNAALKAKIAALKG [4H2238-AA]
B = DKIAALKAEIAALEAKIAALKAKNAALKG [4H2608-AA]
C = DENAALEAKIAALKAKNAALKAKIAALEG [4H1405-AA]
D = DKIAALEAENAALEAKIAALEAENAALEG [4H2211-AA]
(Q) Sort the binders on interaction score; start with the lowest figure. Answer by listing the labels in the requested order.
(A) B, A, D, C
(B: -0.998, A: -0.445, D: 0.569, C: 0.87)
